ASSAYED_SYSTEM: Sodium-dependent serotonin transporter (Rattus norvegicus, UniProt P31652)
Sequence (P31652 whole entry): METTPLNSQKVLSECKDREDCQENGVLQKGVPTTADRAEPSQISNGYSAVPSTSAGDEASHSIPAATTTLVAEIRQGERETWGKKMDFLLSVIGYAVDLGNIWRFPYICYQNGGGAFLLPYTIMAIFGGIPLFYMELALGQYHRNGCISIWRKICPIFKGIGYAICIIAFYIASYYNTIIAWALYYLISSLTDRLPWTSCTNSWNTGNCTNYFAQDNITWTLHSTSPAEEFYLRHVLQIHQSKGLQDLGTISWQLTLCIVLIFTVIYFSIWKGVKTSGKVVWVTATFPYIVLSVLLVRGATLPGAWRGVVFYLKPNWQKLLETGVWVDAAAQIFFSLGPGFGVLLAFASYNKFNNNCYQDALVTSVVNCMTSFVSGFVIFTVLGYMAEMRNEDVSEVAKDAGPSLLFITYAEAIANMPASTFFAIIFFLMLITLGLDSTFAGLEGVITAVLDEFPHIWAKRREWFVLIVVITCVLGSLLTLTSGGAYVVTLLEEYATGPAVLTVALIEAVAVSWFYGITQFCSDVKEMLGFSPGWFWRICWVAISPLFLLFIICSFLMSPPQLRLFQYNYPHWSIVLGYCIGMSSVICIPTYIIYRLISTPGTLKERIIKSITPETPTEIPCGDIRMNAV
TEST_PROTOCOL: Binding affinity towards Serotonin transporter from rat cortex measured using [3H]paroxetine
CONDITIONS: read-out: Ki
This section presents compounds with their documented Ki values.
ENDPOINT_NAME: Ki (nM)

1. Clc1ccc(N2CCN(CCC(Oc3ccc4c(c3)OCO4)c3ccccc3)CC2)cc1 (centres undefined) = 375
2. COc1ccccc1N1CCN(CCC(=O)c2csc3ccccc23)CC1 = 105

###

ASSAYED_SYSTEM: 5-hydroxytryptamine receptor 1A (Rattus norvegicus)
Sequence (P19327 whole entry): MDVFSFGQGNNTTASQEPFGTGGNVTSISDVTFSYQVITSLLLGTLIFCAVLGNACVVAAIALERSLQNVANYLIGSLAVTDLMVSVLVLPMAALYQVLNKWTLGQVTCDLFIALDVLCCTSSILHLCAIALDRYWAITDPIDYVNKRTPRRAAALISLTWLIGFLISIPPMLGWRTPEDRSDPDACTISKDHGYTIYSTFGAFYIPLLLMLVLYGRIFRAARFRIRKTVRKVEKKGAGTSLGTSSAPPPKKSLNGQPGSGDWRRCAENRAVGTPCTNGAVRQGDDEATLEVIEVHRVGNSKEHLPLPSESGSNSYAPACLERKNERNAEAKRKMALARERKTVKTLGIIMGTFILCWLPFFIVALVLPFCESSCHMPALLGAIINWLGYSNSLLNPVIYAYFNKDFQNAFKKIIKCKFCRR
TEST_PROTOCOL: Binding affinity to 5-hydroxytryptamine 1A receptor (5-HT 1A receptor, serotonin receptor) from rat cortex using [3H]8-OH-DPAT as radioligand
CONDITIONS: read-out: Ki
One threshold, 500 nM, splits the recorded Ki values: lower ones are 1.0, equal or higher ones are 0.0.

1) O=C(CCN1CCN(c2ccc(Cl)cc2)CC1)c1csc2ccccc12 = 0.0
2) COc1ccccc1N1CCN(CCC(=O)c2cc(C)sc2C)CC1 = 1.0
3) COc1ccc(N2CCN(CCC(Oc3ccc(C(F)(F)F)cc3)c3ccccc3)CC2)cc1 (stereo unspecified) = 0.0
4) COc1ccccc1N1CCN(CCC(O)c2csc3ccccc23)CC1 (stereo unspecified) = 1.0
5) O=C(CCN1CCN(c2cccc3ccccc23)CC1)c1csc2ccccc12 = 1.0
6) O=C(CCN1CCN(c2ccccc2Cl)CC1)c1ccsc1 = 1.0
7) COc1ccc(OC(CCN2CCN(c3ccc(Cl)cc3)CC2)c2ccccc2)cc1 (stereo unspecified) = 0.0
8) COc1ccccc1N1CCN(CC/C(=N/O)c2ccc(C)s2)CC1 = 1.0
9) FC(F)(F)c1ccc(OC(CCN2CCN(c3ccccc3Cl)CC2)c2ccccc2)cc1 (stereo unspecified) = 0.0
10) O=C(CCN1CCN(c2ccc(Cl)cc2)CC1)c1cccs1 = 0.0
11) FC(F)(F)c1ccc(OC(CCN2CCN(c3ncccn3)CC2)c2ccccc2)cc1 (stereo unspecified) = 0.0
12) O=C(CCN1CCN(c2ccc(Cl)cc2)CC1)c1ccccc1 = 0.0
13) COc1cc(F)ccc1N1CCN(CCC(=O)c2cc(C)sc2C)CC1 = 1.0
14) COc1ccccc1N1CCN(CC/C(=N/O)c2cc(C)sc2C)CC1 = 1.0
15) O/N=C(\CCN1CCN(c2ccc(Cl)cc2)CC1)c1ccccc1 = 0.0
16) O=C(CCN1CCN(c2ccc(F)cc2)CC1)c1ccccc1 = 0.0
17) O=C(CCN1CCN(c2ccc([N+](=O)[O-])cc2)CC1)c1ccccc1 = 0.0
18) O=[N+]([O-])c1ccc(N2CCN(CCC(O)c3ccccc3)CC2)cc1 (stereo unspecified) = 0.0
19) COc1ccccc1N1CCN(CCC(O)c2ccsc2)CC1 (stereo unspecified) = 1.0
